All figures here come from patent US20250019389A1.

# reported EC50; entries follow
Target: UniProt:P43220
Assay: GLP-1R agonist cAMP stimulation assay
Type: cell-based
Details: cAMP stimulation in HEK293/GLP1R/CRE-LUC cells, 30 min at 37° C., cAMP dynamic 2 Kit (Cisbio)
Reply numerically in nM, unit not repeated.

CCP(=O)(CCO)c1ccc(-n2ccn(-c3c4c(nn3-c3cc(C)c(F)c(C)c3)CCN(C(=O)c3cc5cc(C6CCOCC6)ccc5n3[C@@]3(c5noc(=O)[nH]5)C[C@@H]3C)[C@H]4C)c2=O)cc1NC (single isomer, unassigned) [Compound 102]
0.017

Turning to the following compound.
Qu. # input compound: CCP(=O)(c1ccc(-n2ccn(-c3c4c(nn3-c3cc(C)c(F)c(C)c3)CCN(C(=O)c3cc5cc(C6CCOCC6)ccc5n3[C@@]3(c5noc(=O)[nH]5)C[C@@H]3C)[C@H]4C)c2=O)cc1NC)C(C)O (single isomer, unassigned) [Compound 105] ; wanted: its EC50
Ans. 0.035

* * *

Molecular target: GLP-1 Receptor (Homo sapiens (Human))
Sequence (P43220 24-463, species assumed): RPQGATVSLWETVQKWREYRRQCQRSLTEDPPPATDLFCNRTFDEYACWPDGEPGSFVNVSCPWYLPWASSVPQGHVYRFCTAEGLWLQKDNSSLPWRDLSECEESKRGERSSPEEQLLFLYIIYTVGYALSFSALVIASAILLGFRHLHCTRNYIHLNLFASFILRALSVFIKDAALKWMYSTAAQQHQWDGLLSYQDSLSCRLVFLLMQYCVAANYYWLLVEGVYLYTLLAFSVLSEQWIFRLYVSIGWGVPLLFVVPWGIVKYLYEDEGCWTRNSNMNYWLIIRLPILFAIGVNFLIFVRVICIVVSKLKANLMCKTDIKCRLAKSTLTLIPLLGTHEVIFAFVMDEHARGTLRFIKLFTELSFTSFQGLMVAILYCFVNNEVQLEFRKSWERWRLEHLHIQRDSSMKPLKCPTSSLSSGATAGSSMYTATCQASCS
Assay: GLP-1R agonist cAMP stimulation assay
Details: cAMP stimulation in HEK293/GLP1R/CRE-LUC cells, 30 min at 37° C., cAMP dynamic 2 Kit (Cisbio)
Experimental: Activation of GLP-1 receptor is known to stimulate cyclic AMP (cAMP) production in cells which indicates primary coupling to the G as subunit of the G protein heterotrimeric complex. To optimize functional activity directed toward G αs coupling, a HEK293/CRE-Luc cell line developed by HDB stably expressing the GLP-1 Receptor was used. […] After incubation the cAMP assay signal was generated using cAMP dynamic 2 Kit (Cisbio). […] Read the fluorescence at 665 and 615 nm with Reader PerkinElmer EnVision.
EC50 by entry:
Number only, in nM; omit the unit.

Qu. Consider the molecule CCP(=O)(c1ccc(-n2ccn(-c3c4c(nn3-c3cc(C)c(F)c(C)c3)CCN(C(=O)c3cc5cc(C6CCOCC6)ccc5n3[C@@]3(c5noc(=O)[nH]5)C[C@@H]3C)[C@H]4C)c2=O)cc1NC)C(C)O (single isomer, unassigned) [Compound 107] and give its measured EC50.
Ans. 0.042

Qu. What value of EC50 has been recorded for this entry: CCP(=O)(c1ccc(-n2ccn(-c3c4c(nn3-c3cc(C)c(F)c(C)c3)CCN(C(=O)c3cc5cc(C6CCOCC6)ccc5n3[C@@]3(c5noc(=O)[nH]5)C[C@@H]3C)[C@H]4C)c2=O)cc1NC)C(C)O (single isomer, unassigned) [Compound 106]
Ans. 0.029

Qu. Recorded EC50 for CCP(=O)(c1ccc(-n2ccn(-c3c4c(nn3-c3cc(C)c(F)c(C)c3)CCN(C(=O)c3cc5cc(C6CCOCC6)ccc5n3[C@@]3(c5noc(=O)[nH]5)C[C@@H]3C)[C@H]4C)c2=O)cc1NC)C(C)O (single isomer, unassigned) [Compound 108] , please?
Ans. 0.031

Qu. Which value of EC50 has been reported for CCP(=O)(CCO)c1ccc(-n2ccn(-c3c4c(nn3-c3cc(C)c(F)c(C)c3)CCN(C(=O)c3cc5cc(C6CCOCC6)ccc5n3[C@@]3(c5noc(=O)[nH]5)C[C@@H]3C)[C@H]4C)c2=O)cc1NC (single isomer, unassigned) [Compound 103] in the records?
Ans. 0.012
